system: PC-3; test: NCI tumour cell line growth inhibition, 48 h
Where a name gives a salt, the structure may show the parent alone. Activity calls are given as the source filed them. No stated cut-off is given here; in the data, active = GI50 up to about 1.1 µM and inactive = higher.
endpointName: GI50

IN: For the compound COC(=O)c1sc2ncc3c(c2c1N)CC(C)CC3 (stereo not given) , give its measured GI50 value.
OUT: > 100 µM (inactive)

IN: For the compound CC(=O)N1CC[N+](C)(CCCCN2c3ccccc3Sc3cc(N=[N+]=[N-])ccc32)CC1 , give its measured GI50 value.
OUT: > 100 µM (inactive)

IN: For the compound CC(C)c1ccccc1SCc1cc(=O)cc(CSc2ccccc2C(C)C)o1 , give its measured GI50 value.
OUT: 13.7 µM (inactive)

IN: For the compound C=C(CN(C)C)C(=O)c1cc(C)ccc1C , give its measured GI50 value.
OUT: 14.1 µM (inactive)

IN: For the compound Cc1ccc(S(=O)(=O)N2CCN3CCN(CCN(C)CCN4CCN(CC4)CCN(S(=O)(=O)c4ccc(C)cc4)CCN(S(=O)(=O)c4ccc(C)cc4)CCN(S(=O)(=O)c4ccc(C)cc4)CCN(S(=O)(=O)c4ccc(C)cc4)CCN4CCN(CCN(C)CCN5CCN(CC5)CCN(S(=O)(=O)c5ccc(C)cc5)CCN(S(=O)(=O)c5ccc(C)cc5)CCN(S(=O)(=O)c5ccc(C)cc5)CC2)CC4)CC3)cc1 , give its measured GI50 value.
OUT: 1.85 µM (inactive)

IN: For the compound O=[N+]([O-])c1ccc2nc3c(nc2c1)-c1c2ccccc2cc2cccc-3c12 , give its measured GI50 value.
OUT: 9.55 µM (inactive)

IN: For the compound COc1ccccc1NC(=S)N/N=C/c1cccc(C)n1 , give its measured GI50 value.
OUT: 4.5 µM (inactive)

IN: For the compound O=C(Nc1ccc2ncccc2c1)Nc1ccc2ncccc2c1 , give its measured GI50 value.
OUT: > 100 µM (inactive)

IN: For the compound O=[N+]([O-])c1cc(Cl)cc2cc(Cl)cnc12 , give its measured GI50 value.
OUT: 93.5 µM (inactive)

IN: For the compound COc1cc(N(CCC#N)CCC#N)ccc1C(/N=N/c1cccc(C)c1)=N\NC(=O)c1ccc(C)cc1 , give its measured GI50 value.
OUT: > 100 µM (inactive)

IN: For the compound CC1C(c2ccc3c(c2)OCO3)c2cc3c(cc2OC1N1CCCCC1)OCO3 (stereo not given) , give its measured GI50 value.
OUT: 37.5 µM (inactive)

IN: For the compound O=C(O)CCCCC1CCSS1 (stereo not given) , give its measured GI50 value.
OUT: > 100 µM (inactive)

IN: For the compound CC(=O)O[C@H]1CC[C@@]2(C)C(=CC[C@@H]3[C@@H]2CC[C@]2(C)C(=N/O)/C(=C\c4ccccc4)C[C@@H]32)C1 , give its measured GI50 value.
OUT: 5.96 µM (inactive)

IN: For the compound COc1cccc2cc(C(=O)Nc3ccccc3)c(=N)oc12 , give its measured GI50 value.
OUT: > 100 µM (inactive)

IN: For the compound COc1ccc(/C=C/C(=O)CC(=O)/C=C/c2ccc(OC)cc2)cc1 , give its measured GI50 value.
OUT: 19.9 µM (inactive)

IN: For the compound CCN(CC)CCNc1ccc(C)c2sc3ccccc3c(=O)c12 [LUCANTHONE HYDROCHLORIDE] , give its measured GI50 value.
OUT: 2.03 µM (inactive)

IN: For the compound Cc1cccc(-c2cc(O)c3c(C)cc(C)nc3n2)c1 , give its measured GI50 value.
OUT: 2.43 µM (inactive)

IN: For the compound O=C(O)CNCc1c2ccccc2nc2ccccc12 , give its measured GI50 value.
OUT: 27.2 µM (inactive)

IN: For the compound CC(C)N/C(=N\C#N)NS(=O)(=O)c1cnccc1NC1CCCCCCC1 , give its measured GI50 value.
OUT: > 100 µM (inactive)

IN: For the compound C[S+](C)([O-])=Nn1c(=O)n2n(c1=O)[C@H]1CC[C@@H]2C1 , give its measured GI50 value.
OUT: > 100 µM (inactive)
